- STUDY_TARGET: T1, CAS SH3 (as used for ITC) (mouse, UniProt Q61140 3-65)
- T1 construct: Crk-associated substrate (CAS), mouse, SH3 domain; probably the same protein as m2; source: E. coli BL21 (DE3), purified
- T1 sequence (looked up): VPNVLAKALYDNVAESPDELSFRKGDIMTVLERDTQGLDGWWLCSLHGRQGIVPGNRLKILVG
- TEST_METHOD_NOTES: ITC; 660 µM peptide injected into 60 µM CAS SH3; 25 °C; PBS pH 7.5, 0.05% 2-mercaptoethanol
- MEASUREMENT_PARAMETERS: both partners purified
pKd: recorded values
Hey, just a heads up that pKd is the negative log base 10 of the concentration in molar.

Here are 2 binders together with their reported answers.
BINDER | MEASURED_PARAMETER | MEASURED_RESULT
PPPKPPRL (source: synthetic peptide) [synthetic octapeptide PPPKPPRL] | pKd | 5.28
PPSKPPRP (source: synthetic peptide) [synthetic octapeptide PPSKPPRP] | pKd | 4.82

Form field pKd, entry APPKPPLP (also called Vinculin core peptide (859-866); source: synthetic peptide) [synthetic octapeptide APPKPPLP (binding site of CAS on Vinculin)] : 4.80

Just so you know, measured pKd for PPSKPPLP (source: synthetic peptide) [synthetic octapeptide PPSKPPLP] came out at 4.33
